Tested on: BACE1 (Aβ40 from cells stably expressing Amyloid Precursor Protein)
assayInfo: In vitro BACE1 cell-based assay (Aβ40 in conditioned medium, HTRF)
measurementSetup: Aβ40, 24 h incubation; read-out: BACE1 Cell IC50
pIC50: −log10 of the molar value.
measure: pIC50

a: N#Cc1ccc(/C(F)=C/c2ccc(F)c([C@]34CO[C@H](CF)[C@H]3CSC(N)=N4)c2)nc1
b: N#Cc1ccc(/C(F)=C/c2ccc(F)c([C@]34CO[C@H](C(F)(F)F)[C@H]3CSC(N)=N4)c2)nc1
c: NC1=N[C@@]2(c3cc(/C=C(\F)c4ncc(C(F)(F)F)cc4Cl)ccc3F)CO[C@H](C(F)(F)F)[C@H]2CS1
Challenge: Please list these in order of increasing pIC50. Thank you! Submit the labels in the order that the ranking request calls for.
Response given: c, a, b
(c: 6.70, a: 7.94, b: 8.24)

====

System: BACE1 (Aβ40 from cells stably expressing Amyloid Precursor Protein)
assayInfo: In vitro BACE1 cell-based assay (Aβ40 in conditioned medium, HTRF)
measurementSetup: 24 h, read-out: BACE1 Cell IC50 (μM)
measure: IC50 (µM)
The reply should be a number in µM, with the unit left off.

* C#CCOc1cnc(/C(F)=C/c2ccc(F)c([C@]34CN(C(=O)OC)C[C@H]3CSC(N)=N4)c2)cn1 | 0.00679
* NC1=N[C@@]2(c3cc(/C=C(\F)c4cnc(OCC(F)(F)C(F)F)cn4)ccc3F)CN(c3ncc(F)cn3)C[C@H]2CS1 | 0.02

Challenge: Query IC50 on BACE1 (Aβ40 from cells stably expressing Amyloid Precursor Protein) for C#CCOc1cnc(/C(F)=C/c2ccc(F)c([C@]34CN(C(=O)OC(C)C)C[C@H]3CSC(N)=N4)c2)cn1
Response given: 0.00269

Challenge: Query IC50 on BACE1 (Aβ40 from cells stably expressing Amyloid Precursor Protein) for C#CCOc1cnc(/C(F)=C/c2ccc(F)c([C@]34CN(C(=O)OCC)C[C@H]3CSC(N)=N4)c2)cn1
Response given: 0.00478

Challenge: Query IC50 on BACE1 (Aβ40 from cells stably expressing Amyloid Precursor Protein) for C#CCOc1cnc(/C(F)=C/c2ccc(F)c([C@]34CN(C(=O)OC(C)(C)C)C[C@H]3CSC(N)=N4)c2)cn1
Response given: 0.00188

Challenge: Query IC50 on BACE1 (Aβ40 from cells stably expressing Amyloid Precursor Protein) for N#Cc1cnc(/C(F)=C/c2ccc(F)c([C@]34CO[C@H](C(F)(F)F)[C@H]3CSC(N)=N4)c2)cn1
Response given: 0.00364

Challenge: Query IC50 on BACE1 (Aβ40 from cells stably expressing Amyloid Precursor Protein) for C#CCOc1cnc(/C(F)=C/c2ccc(F)c([C@]34CO[C@H](C(F)(F)F)[C@H]3CSC(N)=N4)c2)cn1
Response given: 0.0243

Challenge: Query IC50 on BACE1 (Aβ40 from cells stably expressing Amyloid Precursor Protein) for NC1=N[C@]2(c3cc(/C=C(\F)c4ccc(Cl)cn4)ccc3F)CN(c3ncc(F)cn3)C[C@@H]2CS1
Response given: 1.25

====

assaySystem: Recombinant CatD (Homo sapiens (Human))
Sequence (P07339 65-412): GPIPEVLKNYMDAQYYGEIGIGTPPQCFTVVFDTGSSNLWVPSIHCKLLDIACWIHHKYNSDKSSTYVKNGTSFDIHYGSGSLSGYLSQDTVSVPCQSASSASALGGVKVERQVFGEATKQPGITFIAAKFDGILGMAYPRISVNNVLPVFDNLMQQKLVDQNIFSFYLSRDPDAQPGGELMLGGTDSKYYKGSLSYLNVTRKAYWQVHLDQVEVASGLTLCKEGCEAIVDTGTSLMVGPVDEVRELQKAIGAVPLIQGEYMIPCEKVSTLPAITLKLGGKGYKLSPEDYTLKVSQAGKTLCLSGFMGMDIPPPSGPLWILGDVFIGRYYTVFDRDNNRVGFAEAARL
assayInfo: In vitro enzymatic Cathepsin D (CatD) FRET assay
Format: biochemical
measurementSetup: read-out: Cat D Enzyme IC50
measure: IC50 (µM)

A: COc1cnc(/C(F)=C/c2ccc(F)c([C@]34CN(c5ncc(F)cn5)C[C@H]3CSC(N)=N4)c2)cn1
B: N#Cc1ccc(/C(F)=C/c2ccc(F)c([C@@]34CO[C@@H](C(F)(F)F)[C@@H]3COC(N)=N4)c2)nc1 (single isomer, unassigned) [Example 143]
Challenge: Compare A and B and name the one whose reported IC50 is smaller. When you have decided, please share the label of that item.
Response given: A
(A: 14.8 µM, B: 95.6 µM)

Origin of values: patent US11548903B2
